Each entry below carries its reported pEC50.
Target: T1, His6-tagged human KRas Isoform 4B (residues 1-169) (human, UniProt P01116-2 1-169)
T1 construct: Expressed in E. coli BL21(DE3), purified on Ni-NTA; also called KRas protein; WT KRas protein; not shown: His6 tag from the PQE80 vector
Assay: multi-well sandwich ELISA; ligand on Neutravidin plate, KRas 0-300 µM
Ends that are not written are not given here.
The read-out pEC50 is expressed as -log10 of concentration in moles per litre.

Look over these answered cases.
VQVPY (triazole (positions not given here); not fully specified (bridges); also: 1,4-triazole macrocycle, ring places not given here, propargylglycine click handle, place not given here, biotinylated (biotin NovaTag resin), site not given here, also called VQVPY f1) [L7a] = 4.59
VEVYP (triazole (positions not given here); not fully specified (bridges); also: 1,4-triazole macrocycle, ring places not given here, propargylglycine click handle, place not given here, biotinylated (biotin NovaTag resin), site not given here, also called VEVYP f2) [L5b] = 5.16

Problem: Tell me measured pEC50 for TDNFY (triazole (positions not given here); not fully specified (bridges); also: macrocycle closed by 1,4-triazole, propargylglycine click handle, other ring residues not given here, also called TDNFY) [L8] please.
Result: 4.59

Problem: # return recorded pEC50 for entry VQVPY (triazole (positions not given here); not fully specified (bridges); also: 1,4-triazole macrocycle, ring places not given here, propargylglycine click handle, place not given here, biotinylated (biotin NovaTag resin), site not given here, also called VQVPY f2) [L7b]
Result: 4.35
